As shown below, each of these binders has a reported IC80 (µg/ml) with constrains value.
Target desc: HIV Env, isolate Ce0682_E4 (HIV)
Protocol text: cell-based or functional assay
Write the answer as a number in µg/mL, unit excluded.

Solved cases (2 shown):
{"Binder": "ePGDM5 (antibody, V domains shown) VH: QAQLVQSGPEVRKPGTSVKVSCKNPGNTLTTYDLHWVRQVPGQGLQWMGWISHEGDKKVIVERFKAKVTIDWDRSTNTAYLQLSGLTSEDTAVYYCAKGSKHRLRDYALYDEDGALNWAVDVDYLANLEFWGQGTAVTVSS VL: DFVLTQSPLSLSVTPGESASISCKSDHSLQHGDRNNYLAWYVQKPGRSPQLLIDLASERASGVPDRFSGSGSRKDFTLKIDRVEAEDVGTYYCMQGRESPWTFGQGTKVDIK", "IC80 (µg/ml) with constrains [µg/mL]": 0.021}
{"Binder": "ePGDM13 (antibody, V domains shown) VH: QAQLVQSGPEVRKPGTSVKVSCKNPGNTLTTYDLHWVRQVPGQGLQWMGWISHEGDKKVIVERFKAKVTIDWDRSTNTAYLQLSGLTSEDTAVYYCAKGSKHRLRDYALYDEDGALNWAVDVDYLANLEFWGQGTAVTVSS VL: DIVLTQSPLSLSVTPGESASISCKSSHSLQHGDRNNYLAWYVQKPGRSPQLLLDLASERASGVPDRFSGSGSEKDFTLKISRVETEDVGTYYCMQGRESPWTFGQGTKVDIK", "IC80 (µg/ml) with constrains [µg/mL]": 0.043}

As a next step, examine the binder that follows.
INPUT: Write down IC80 (µg/ml) with constrains measured for item PGDM1400 (antibody, V domains shown) VH: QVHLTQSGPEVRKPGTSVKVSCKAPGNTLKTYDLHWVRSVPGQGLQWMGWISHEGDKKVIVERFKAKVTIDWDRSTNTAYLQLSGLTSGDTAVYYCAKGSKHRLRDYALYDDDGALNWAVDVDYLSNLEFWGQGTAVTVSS VL: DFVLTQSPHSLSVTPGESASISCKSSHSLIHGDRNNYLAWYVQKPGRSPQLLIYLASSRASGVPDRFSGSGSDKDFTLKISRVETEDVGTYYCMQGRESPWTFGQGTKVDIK
OUTPUT: 0.037
